assay: Solubility experiment in different media (crystal form B of the Example 53 compound); format: physicochemical; conditions: thermodynamic from solid, Fe (Fed State Simulated Intestinal Fluid, FeSSIF), 37° C.
measurement_label: solubility thermodynamic at 24 h (µg/mL)
Quick note: give the figure in µg/mL, leave out the unit.

# input Return value of solubility thermodynamic at 24 h for input Nc1nc(N2CCC3(CC2)Cc2ccccc2[C@H]3N)c(F)nc1Sc1ccnc(N)c1Cl , no commentary.
# output 64

---

experiment: Solubility experiment in different media (crystal form B of the Example 53 compound); format: physicochemical; settings: thermodynamic from solid, Fa (Fasted State Simulated Intestinal Fluid, FaSSIF), 37° C.
measurement_label: solubility thermodynamic at 24 h (µg/mL)
Express your answer in µg/mL, writing the number without its unit.

# input # return recorded solubility thermodynamic at 24 h for input Nc1nc(N2CCC3(CC2)Cc2ccccc2[C@H]3N)c(F)nc1Sc1ccnc(N)c1Cl
# output 170

The origin of these recorded values is patent US20230134869A1.
